Source listed as PubChem BioAssay AID2060900.

Measured viability, T/C values are reported for all entries that follow.
system: 521955-158-R2-J5-PDC complex spheroids, viability; test: Anticancer human tumor 521955-158-R2-J5-PDC patient-derived pancreatic carcinoma cell line growth inhibition [RAS]; settings: second compound 0.03 µM; first compound 0.01 µM; active compounds read low;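 note: spheroids also contain HUVEC endothelial cells and mesenchymal stem cells as stroma; compound exposure lasted seven days before the viability read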

| Compound | Quantity Unit | viability, T/C |
| --- | --- | --- |
| Nc1ccn(C2OC(CO)C(O)C2(F)F)c(=O)n1 (stereo not drawn) + CCn1c(-c2cc(N3CCN(C)CC3)cnc2C(C)OC)c2c3cc(ccc31)-c1csc(n1)CC(NC(=O)C1CC1C)C(=O)N1CCCC(N1)C(=O)OCC(C)(C)C2 | % | 20.6 |
| CCN1CCN(Cc2ccc(Nc3ncc(F)c(-c4cc(F)c5nc(C)n(C(C)C)c5c4)n3)nc2)CC1 + CCn1c(-c2cccnc2C(C)OC)c2c3cc(ccc31)N1CCOC(CC(NC(=O)C(C(C)C)N(C)C(=O)C3(F)CCN(C(=O)C#CC(C)(C)N(C)C)CC3)C(=O)N3CCCC(N3)C(=O)OCC(C)(C)C2)C1 | % | 89.7 |
| C=CC(=O)N1CCN(c2nc(OCC3CCCN3C)nc3c(F)c(-c4nc(N)cc(C)c4C(F)(F)F)c(Cl)cc23)C(C)C1 (stereo not drawn) + CCn1c(-c2cccnc2C(C)OC)c2c3cc(ccc31)N1CCOC(CC(NC(=O)C(C(C)C)N(C)C(=O)C3(F)CCN(C(=O)C#CC(C)(C)N(C)C)CC3)C(=O)N3CCCC(N3)C(=O)OCC(C)(C)C2)C1 | % | 92.8 |
| CC(C)n1nc(-c2ccc3oc(N)nc3c2)c2c(N)ncnc21 + CCn1c(-c2cccnc2C(C)OC)c2c3cc(ccc31)N1CCOC(CC(NC(=O)C(C(C)C)N(C)C(=O)C3(F)CCN(C(=O)C#CC(C)(C)N(C)C)CC3)C(=O)N3CCCC(N3)C(=O)OCC(C)(C)C2)C1 | % | 69.8 |
| C=CC(=O)Nc1cc(Nc2nccc(-c3cn(C)c4ccccc34)n2)c(OC)cc1N(C)CCN(C)C + CCn1c(-c2cccnc2C(C)OC)c2c3cc(ccc31)N1CCOC(CC(NC(=O)C(C(C)C)N(C)C(=O)C3(F)CCN(C(=O)C#CC(C)(C)N(C)C)CC3)C(=O)N3CCCC(N3)C(=O)OCC(C)(C)C2)C1 | % | 79.2 |
| Nc1ccn(C2OC(CO)C(O)C2(F)F)c(=O)n1 (stereo not drawn) + CCn1c(-c2cccnc2C(C)OC)c2c3cc(ccc31)N1CCOC(CC(NC(=O)C(C(C)C)N(C)C(=O)C3(F)CCN(C(=O)C#CC(C)(C)N(C)C)CC3)C(=O)N3CCCC(N3)C(=O)OCC(C)(C)C2)C1 | % | 78.9 |
| O=C(c1ccc(F)c(F)c1Nc1ccc(I)cc1F)N1CC(O)([C@@H]2CCCCN2)C1 + CCn1c(-c2cc(N3CCN(C)CC3)cnc2C(C)OC)c2c3cc(ccc31)-c1csc(n1)CC(NC(=O)C1CC1C)C(=O)N1CCCC(N1)C(=O)OCC(C)(C)C2 | % | 18.3 |
| C=CC(=O)N1CCN(c2nc(OCC3CCCN3C)nc3c(F)c(-c4nc(N)cc(C)c4C(F)(F)F)c(Cl)cc23)C(C)C1 (stereo not drawn) + CCn1c(-c2cc(N3CCN(C)CC3)cnc2C(C)OC)c2c3cc(ccc31)-c1csc(n1)CC(NC(=O)C1CC1C)C(=O)N1CCCC(N1)C(=O)OCC(C)(C)C2 | % | 19 |
